Recorded values, source patent US8450454B2.

biological target: Aβ (1-42) (Homo sapiens, UniProt P05067); test: Binding of 125I-labeled GST-ABAD or ABAD mutants to immobilized Aβ (1-42); set-up: key: +: Specific binding comparable to that observed with wild type ABAD; −: No observed specific binding; settings: 125I-labeled GST-ABAD or ABAD to immobilized Aβ (1-42)
Sequence (P05067 672-713): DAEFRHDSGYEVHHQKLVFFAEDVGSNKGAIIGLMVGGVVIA
endpoint: Aβ Binding

| molecule | result |
| --- | --- |
| S98A, K99A, Y101A: site-directed ABAD mutant (protein, UniProt Q99714 2-261, looked up, variant S98A K99A Y101A) 3-hydroxyacyl-CoA …: AAACRSVKGLVAVITGGASGLGLATAERLVGQGASAVLLDLPNSGGEAQAKKLGNNCVFAPADVTSEKDVQTALALAKGKFGRVDVAVNCAGIAVAAATANLKKGQTHTLEDFQRVLDVNLMGTFNVIRLVAGEMGQNEPDQGGQRGVIINTASVAAFEGQVGQAAYSASKGGIVGMTLPIARDLAPIGIRVMTIAPGLFGTPLLTSLPEKVCNFLASQVPFPSRLGDPAEYAHLVQAIIENPFLNGEVIRLDGAIRMQP | − |
